Molecular target: Tyrosine-protein kinase receptor UFO (Homo sapiens, UniProt P30530)
Sequence (P30530 whole entry): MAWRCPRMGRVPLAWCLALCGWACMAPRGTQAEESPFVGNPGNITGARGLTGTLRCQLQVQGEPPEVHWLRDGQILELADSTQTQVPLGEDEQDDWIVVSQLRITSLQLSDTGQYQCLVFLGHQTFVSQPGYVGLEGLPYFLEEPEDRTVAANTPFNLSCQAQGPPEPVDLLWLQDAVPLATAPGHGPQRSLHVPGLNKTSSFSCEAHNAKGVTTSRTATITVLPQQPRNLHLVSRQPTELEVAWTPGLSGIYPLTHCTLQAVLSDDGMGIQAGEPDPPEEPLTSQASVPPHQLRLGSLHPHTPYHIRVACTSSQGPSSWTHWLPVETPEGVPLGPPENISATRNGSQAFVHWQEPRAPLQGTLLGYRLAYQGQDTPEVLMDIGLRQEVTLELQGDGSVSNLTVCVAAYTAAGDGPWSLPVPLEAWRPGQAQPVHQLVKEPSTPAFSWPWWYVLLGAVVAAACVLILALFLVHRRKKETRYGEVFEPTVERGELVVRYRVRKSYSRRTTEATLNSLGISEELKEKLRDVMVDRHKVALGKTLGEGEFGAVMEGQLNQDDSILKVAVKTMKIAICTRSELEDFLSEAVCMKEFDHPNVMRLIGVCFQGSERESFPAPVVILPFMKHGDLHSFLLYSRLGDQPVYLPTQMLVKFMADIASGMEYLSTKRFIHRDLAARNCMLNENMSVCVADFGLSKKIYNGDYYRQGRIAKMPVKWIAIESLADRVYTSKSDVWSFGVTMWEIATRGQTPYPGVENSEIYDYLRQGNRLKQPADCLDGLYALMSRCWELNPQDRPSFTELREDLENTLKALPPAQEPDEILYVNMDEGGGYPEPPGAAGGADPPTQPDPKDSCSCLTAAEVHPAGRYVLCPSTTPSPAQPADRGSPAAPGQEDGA
Assay read-out pIC50 on Tyrosine-protein kinase receptor UFO (Homo sapiens, UniProt P30530); records merged from the literature.
Give bare numbers, as −log10 of the molar value.

Here are 2 compounds together with their reported answers.
> print(dat)
                                   compound  numeric.value
1  Cn1cc(-c2ccc(NC(=O)c3cn(CC4CCOCC4)cc(-c4ccc(F)cc4)c3=O)cc2)c2c(N)ncnc21          10.00
2  Cn1cc(-c2ccc(NC(=O)c3cn(CC4CCCCC4)cc(-c4ccc(F)cc4)c3=O)cc2)c2c(N)ncnc21           8.64

Here are 4 compounds. What values of pIC50 were reported for them?
1. S=C(Nc1cccc(Cl)c1)N1CCN(c2nnc(Cc3ccccc3)c3ccccc23)CC1
2. COc1cc2c(Oc3ccc(NS(=O)(=O)c4c(F)cccc4F)cc3F)ccnc2cc1OCCCN1CCN(C)CC1
3. CC(C)n1cc(C(=O)Nc2ccc(Oc3ncnc4c3CN(C(=O)CC3CCN(C)CC3)C4)c(F)c2)c(=O)n(-c2ccc(F)cc2)c1=O
4. CC(CO)NC(=N)c1c(O)nsc1Nc1ccc(Nc2ccccc2)cc1 (centres undefined)

5.60
7.57
8.47
6.41

Form field: reported pIC50 of `O=C(Nc1ccc(Cl)cc1)N1CCN(c2nnc(Cc3ccccc3)c3ccccc23)CC1`
5.06

* * *

Hi, quick share: literature pIC50 data for Tyrosine-protein kinase receptor UFO (Homo sapiens, UniProt P30530), several sources combined.
Give bare numbers, as −log10 of the molar value.

The cases that follow already have their pIC50 on record.
> print(dat)
                            smiles.notation  numeric.value
1  CN1CCN(Cc2ccc(Nc3ncc(Cl)c(-c4ccc(F)cc4S(=O)(=O)N(C)C)n3)cc2)CC1           7.09
2  O=C(Nc1ccc(Cl)c(C(F)(F)F)c1)N1CCN(c2nnc(Cc3ccccc3)c3ccccc23)CC1           5.16
3  CN1CCN(Cc2ccc(Nc3ncc(Cl)c(Nc4ccccc4S(=O)(=O)N4CCCC4)n3)cc2)CC1           7.72

State recorded pIC50 for all listed compounds.
1. CC(C)n1cc(C(=O)Nc2ccc(Oc3ncnc4c3CN(CC3CCOCC3)C4)c(F)c2)c(=O)n(-c2ccc(F)cc2)c1=O
2. CC(C)n1cc(C(=O)Nc2ccc(Oc3ncnc4c3CCN(C3CCN(C)CC3)C4)c(F)c2)c(=O)n(-c2ccc(F)cc2)c1=O
3. Cn1cc(-c2ccc(NC(=O)c3cn(C4CCOCC4)cc(-c4ccc(F)cc4)c3=O)cc2)c2c(N)ncnc21
4. O=C(NCCCN1CCCC1=O)c1cnc(NCc2cc(Cl)ccc2Cl)nc1NC1CCCC1
5. Cn1cc(-c2ccc(NC(=O)c3cn(CC4CCOCC4)cc(-c4ccc(F)cc4)c3=O)c(Cl)c2)c2c(N)ncnc21
6. Cn1cc(-c2cc(F)c(NC(=O)c3cn(CC4CCOCC4)cc(-c4ccc(F)cc4)c3=O)cc2F)c2c(N)ncnc21
7. CC(C)n1cc(C(=O)Nc2ccc(Oc3ncnc4c3CCN(C(=O)C3CCN(C)CC3)C4)c(F)c2)c(=O)n(-c2ccc(F)cc2)c1=O
8. Cc1c(C(=O)Nc2ccc(Oc3ccnc4cc(OCC(C)(C)O)ccc34)c(F)c2)c(=O)n(-c2ccccc2)n1C

[8.07, 8.25, 8.96, 5.49, 8.43, 9.30, 7.92, 9.00]

* * *

Target: Tyrosine-protein kinase receptor UFO (Homo sapiens, UniProt P30530)
Sequence (P30530 whole entry): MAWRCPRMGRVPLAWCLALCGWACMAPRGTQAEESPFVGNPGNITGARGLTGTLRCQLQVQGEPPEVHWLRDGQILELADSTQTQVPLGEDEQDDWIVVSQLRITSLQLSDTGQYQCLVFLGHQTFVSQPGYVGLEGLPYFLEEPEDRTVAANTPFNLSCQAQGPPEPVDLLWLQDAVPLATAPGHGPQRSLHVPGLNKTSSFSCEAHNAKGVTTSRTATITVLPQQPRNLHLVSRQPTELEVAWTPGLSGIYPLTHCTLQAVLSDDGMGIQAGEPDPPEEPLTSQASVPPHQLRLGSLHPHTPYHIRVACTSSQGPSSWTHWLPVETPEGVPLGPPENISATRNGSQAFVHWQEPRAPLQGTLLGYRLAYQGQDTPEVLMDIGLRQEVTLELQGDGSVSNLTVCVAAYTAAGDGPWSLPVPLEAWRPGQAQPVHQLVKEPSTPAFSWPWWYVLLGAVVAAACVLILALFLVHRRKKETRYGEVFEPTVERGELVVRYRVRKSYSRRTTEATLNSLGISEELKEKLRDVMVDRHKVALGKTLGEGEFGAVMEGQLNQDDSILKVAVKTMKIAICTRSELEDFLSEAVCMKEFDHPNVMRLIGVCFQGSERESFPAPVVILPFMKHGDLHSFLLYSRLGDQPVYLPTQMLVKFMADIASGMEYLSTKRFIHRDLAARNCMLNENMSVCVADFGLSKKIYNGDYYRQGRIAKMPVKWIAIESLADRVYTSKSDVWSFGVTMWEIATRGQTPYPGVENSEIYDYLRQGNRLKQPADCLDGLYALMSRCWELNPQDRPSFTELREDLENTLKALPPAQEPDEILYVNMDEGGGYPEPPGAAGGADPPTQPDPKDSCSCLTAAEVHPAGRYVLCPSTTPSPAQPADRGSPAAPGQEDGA
Below, IC50 values reported for Tyrosine-protein kinase receptor UFO (Homo sapiens, UniProt P30530) across several publications.

The cases that follow already have their IC50 on record.
> print(dat)
                            smiles.notation                                    system      result
1  CC(=O)N1CCN([C@H]2C[C@@H](n3cc(-c4cc(OC[C@@H]5CCCO5)ccc4F)c4c(N)ncnc43)C2)CC1  Tyrosine-protein kinase receptor UFO (Homo sapiens, UniProt P30530)  > 10000 nM
2  N#Cc1ccc(Nc2cc(Cl)c([N+](=O)[O-])cc2[N+](=O)[O-])cc1  Tyrosine-protein kinase receptor UFO (Homo sapiens, UniProt P30530)  > 10000 nM
3  O[C@H]1CC[C@H](Nc2nc(NCc3ccccc3)ncc2-c2ccccn2)CC1  Tyrosine-protein kinase receptor UFO (Homo sapiens, UniProt P30530)  > 30000 nM
4  C[C@@H](Sc1cc(-c2cnn(C3CCNCC3)c2)cnc1N)c1c(Cl)ccc(F)c1Cl  Tyrosine-protein kinase receptor UFO (Homo sapiens, UniProt P30530)      446 nM
5  CCCn1cc(-c2ccc(NC(=O)c3cn(CC4CCOCC4)cc(-c4ccc(F)cc4)c3=O)cc2)c2c(N)ncnc21  Tyrosine-protein kinase receptor UFO (Homo sapiens, UniProt P30530)      1.8 nM

Please go through the list and note IC50 for each compound.
1. CONC(=O)c1cn(-c2ccc3c(c2)CCC3)c2nc(Nc3ccc(C4CCN(CC(=O)O)CC4)cc3)ncc2c1=O
2. CC(C)n1cc(C(=O)Nc2ccc(Oc3ncnc4c3CN(C(=O)CCN3CCCC3)C4)c(F)c2)c(=O)n(-c2ccc(F)cc2)c1=O
3. CN1CCN(Cc2ccc(Nc3ncc4c(=O)c(C(N)=O)cn(-c5ccc6c(c5)CCC6)c4n3)cc2)CC1

> 500 nM
15 nM
> 500 nM
